Every entry's value here was drawn from patent US8835440B2.

Biological target: CCR2 (Homo sapiens)
Construct: Membranes were prepared from THP-1 cells; endogenous in cells
Sequence (P41597 1-360 isoform P41597-2): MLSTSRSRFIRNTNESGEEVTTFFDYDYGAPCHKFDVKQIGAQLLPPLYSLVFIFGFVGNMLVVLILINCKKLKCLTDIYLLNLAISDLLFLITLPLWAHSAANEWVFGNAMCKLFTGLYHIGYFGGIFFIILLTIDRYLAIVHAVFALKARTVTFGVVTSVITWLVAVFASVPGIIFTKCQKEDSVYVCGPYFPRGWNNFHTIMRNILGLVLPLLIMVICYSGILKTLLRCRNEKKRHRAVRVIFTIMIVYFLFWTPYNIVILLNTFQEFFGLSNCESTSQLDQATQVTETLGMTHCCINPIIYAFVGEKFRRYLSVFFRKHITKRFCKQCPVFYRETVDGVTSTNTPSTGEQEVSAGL
Assay: CCR2 receptor membrane binding assay ([125I]MCP-1, THP-1 cell membranes, SPA beads)
Details: dissociation constant hKi; [125I]MCP-1 binding to THP-1 membranes
MEASURE: Ki (nM)

Here's what some known entries look like.
MOLECULE | TEST SYSTEM | EXPERIMENTAL RESULT
Cc1c(NCc2ccc(Cl)c(Cl)c2)ncnc1C(=O)N1CCC(N2CC[C@H](N(C)S(C)(=O)=O)C2)CC1 | CCR2 (Homo sapiens) | 1170
Cc1cccc([C@H]2CC[C@H](CNc3ncnc(C(=O)N4CCC(N5CCC(N(C)S(C)(=O)=O)CC5)CC4)c3C)O2)c1 [Example 159ia] | CCR2 (Homo sapiens) | 17
Cc1c(NCC2COc3ccc(Cl)cc3C2)ncnc1C(=O)N1CCC(N2CCC(N(C)S(C)(=O)=O)CC2)CC1 (centres unmarked) [Example 159sb] | CCR2 (Homo sapiens) | 21
Cc1c(NCCCCc2ccccc2)ncnc1C(=O)N1CCC(N2CCC(O)CC2)CC1 | CCR2 (Homo sapiens) | 200
Cc1c(NCC2CCCC(c3ccc(Cl)cc3)C2)ncnc1C(=O)N1CCC(N2CCC(N(C)S(C)(=O)=O)CC2)CC1 (centres unmarked) [Example 159da] | CCR2 (Homo sapiens) | 5

a: Cc1c(NC[C@@H]2CC[C@@H](c3ccc(C(F)(F)F)cc3)O2)ncnc1C(=O)N1CCC(N2CCC(N(C)S(C)(=O)=O)CC2)CC1 [Example 159ma]
b: Cc1c(NCCc2ccc(OC(F)(F)F)cc2)ncnc1C(=O)N1CCC(N2CCC(O)CC2)CC1
INPUT: Look at a and b . Which one has the lower recorded Ki number? Let me know the label of the one you choose.
OUTPUT: a
(a: 20 nM, b: 387 nM)
